Test: NCI Yeast Anticancer Drug Screen. Data for the mlh1 rad18 strain (AID 175)
Conditions: S. cerevisiae mlh1 rad18 strain growth inhibition; at 50.0 µM; stronger effect = higher value
Compounds without any hit were thinned out: in the full panel of roughly 79,000, 15% have a hit. The source made the active and inactive calls. Rule as the data show it: active = growth inhibition above about 70%; inactive = the rest.
READOUT_KIND: growth inhibition

Known growth inhibition results, listed for orientation:
COMPOUND	MEAS_VALUE
CC(=O)COc1ccccc1[N+](=O)[O-]	15.8% (inactive)
CC(Nc1ncccn1)Nc1ncccn1	-1.75% (inactive)
C=C(C)C(=O)OC1C(C(C)CCCO)=C(CO)CC2OC(=O)C(=C)C21 (stereo unspecified)	-29.1% (inactive)
CCOC(=O)NC(Nc1ccc([N+](=O)[O-])cc1)(C(F)(F)F)C(F)(F)F	59.1% (inactive)
C=CCOC(=O)OCCO	-15.9% (inactive)

Give the reported value of growth inhibition for this record: `O=C(O)CC(CC(=O)O)c1ccc(F)cc1`
-8.5% (inactive)

Please give measured growth inhibition of the following entry: `Nc1nnc(Cc2cccc3ccccc23)o1`
1.1% (inactive)

Return growth inhibition (reported value) for this compound: `CC(=O)c1cnn(C(N)=O)c1C`
-5.75% (inactive)

Indicate its recorded growth inhibition; the compound in question is `CN1C2CCC1/C(=C/c1cccc3c1OCO3)C(=O)/C2=C\c1cccc2c1OCO2`
27.1% (inactive)

Give me measured growth inhibition, please, for this compound: `C/C=C/c1ccc(O)c(OC)c1`
-9.3% (inactive)

Kindly indicate its recorded growth inhibition. Item: COC1/C=C\OC2(C)Oc3c(C)c(O)c4c(O)c(c5c(c4c3C2=O)NC2(CCN(C)CC2)N=5)=NC(=O)/C(C)=C\C=C\C(C)C(O)C(C)C(O)C(C)C(OC(C)=O)C1C (stereo unspecified)
3.25% (inactive)

----------
The entries below come with measured growth inhibition values attached.
Assay: NCI Yeast Anticancer Drug Screen. Data for the rad50 strain (AID 155);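 also: 0% = growth of vehicle-only cultures of the same strain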
Conditions: S. cerevisiae rad50 strain growth inhibition; at 50.0 µM; stronger effect = higher value
This is part of a sample that, as a whole, favours compounds with a hit. Of some 79,000 tested, about 15% had one in any assay.
Give the quantity in %, number only.

Some entries whose results are on file:
CPD_SMILES	growth inhibition (%)
CCc1ccccc1NC(=O)/C(CC(=O)c1c(C)n([O-])c2ccccc2[n+]1=O)=N\NS(=O)(=O)c1ccc(C)cc1	-18.8
Oc1ccc(Oc2cc3c(cc2Oc2ccc(O)cc2)-c2nc-3nc3[nH]c(nc4nc(nc5[nH]c(n2)c2cc(Oc6ccc(O)cc6)c(Oc6ccc(O)cc6)cc52)-c2cc(Oc5ccc(O)cc5)c(Oc5ccc(O)cc5)cc2-4)c2cc(Oc4ccc(O)cc4)c(Oc4ccc(O)cc4)cc32)cc1	-94.7

Please report the measured growth inhibition for `CCOC(=O)c1cnc2c(ccc3ncccc32)c1Cl`
-13.9

Let me know recorded growth inhibition for `NC(=O)N/N=C/c1cccc2ccccc12` , thanks.
24.2

Provide only the value of recorded growth inhibition for `Cc1ccc(O)c(C(C)C)c1`
-26.4

Tell me its growth inhibition given `CC(=O)Nc1cc(-c2ccccc2)cc(-c2ccccc2)c1` as the entry.
11.6

Quickly give me recorded growth inhibition for `CCCCSCc1nc2nc(Cl)c(Cl)nc2[nH]1`
-18.1

Quick one: give measured growth inhibition for `CCOC(=O)C(C)(C)Oc1ccc(N=[N+]=[N-])cc1`
13.1

Please give measured growth inhibition of the following entry: `Brc1ccc(C=C2c3ccccc3-c3ccccc32)cc1`
-11.1
